Protocol Details: Biodistribution in U87MG tumor-bearing mice
Assay type: in vivo
Measurement Context: female, CD-1 nude (athymic nude), mouse, liver, iv, total radioactivity, i.v. ~5 MBq (~1 nmol), 30 min p.i., mean ± SD, n=3, read-out: Biodistribution, Liver
Measured Property: tissue uptake at 0.5 h (%ID/g)
The answer is to be given in %ID/g; state only the numeric part.

// query tissue uptake at 0.5 h value for entry N=C(N)NCCC[C@@H]1NC(=O)[C@H](CCCCNC(=O)CCC(C(=O)O)N2CCN(CC(=O)O)CCN(CC(=O)O)CC2)NC(=O)[C@@H](Cc2ccc(O)cc2)NC(=O)[C@H](CC(=O)O)NC(=O)CNC1=O (some centres unmarked) [^44Sc-NODAGA-RGD, metal not drawn] 1.49

Same again, this time with N=C(N)NCCC[C@@H]1NC(=O)[C@H](CCCCNC(=O)CN2CCN(CC(=O)O)CCN(CC(=O)O)CCN(CC(=O)O)CC2)NC(=O)[C@@H](Cc2ccccc2)NC(=O)[C@H](CC(=O)O)NC(=O)CNC1=O [^44Sc-DOTA-RGD, metal not drawn] 5.16
